What log10 MIC was measured for each of the following?
System: Candida albicans
Test: In vitro antifungal activity for Candida albicans 4711E
Format: functional
Answers are given as log10 of MIC in µg/mL.

Some compounds with known log10 MIC results, for comparison:
>  <Compound>
CC(C)C1=CC2CC3(C=O)[C@@H]4CC[C@@H](C)[C@H]4CC2(CO[C@@H]2O[C@H](C)[C@H]4OC(C)(C)OC4[C@H]2O)C13C(=O)O (single isomer, unassigned)

>  <log10 MIC>
0.90

$$$$
>  <Compound>
CC(C)C1=CC2CC3(C=O)[C@@H]4CC[C@@H](C)[C@H]4CC2(CO[C@H]2C[C@@H]4OC(=S)O[C@@H]4[C@@H](C)O2)C13C(=O)O (some centres not stated)

>  <log10 MIC>
0.30

$$$$
>  <Compound>
CC(C)C1=CC2CC3(C=O)[C@@H]4CC[C@@H](C)[C@H]4CC2(CO[C@H]2C[C@@H]4OC(C)(C)O[C@@H]4[C@@H](C)O2)C13C(=O)O (some centres not stated)

>  <log10 MIC>
-2.40

$$$$
>  <Compound>
CC(C)C1=CC2CC3(C=O)[C@@H]4CC[C@@H](C)[C@H]4CC2(CO[C@@H]2O[C@H](C)[C@H]4OC(=S)OC4[C@@H]2O)C13C(=O)O (single isomer, unassigned)

>  <log10 MIC>
1.79

$$$$
>  <Compound>
CC(C)C1=CC2CC3(C=O)[C@@H]4CC[C@@H](C)[C@H]4CC2(CO[C@H]2C[C@@H]4OC(=O)O[C@@H]4[C@@H](C)O2)C13C(=O)O (some centres not stated)

>  <log10 MIC>
0.30

$$$$

For every listed record, write down its log10 MIC.
1. C/C=C/C=C(\C)C(=O)O[C@H]1[C@H](O)[C@H](OCC23C[C@@H]4[C@H](C)CC[C@H]4C4(C=O)CC2C=C(C(C)C)C34C(=O)O)O[C@H](C)[C@H]1OC (some centres not stated)
2. CC(C)C1=CC2CC3(C=O)[C@@H]4CC[C@@H](C)[C@H]4CC2(CO[C@H]2C[C@@H]4OCO[C@@H]4[C@@H](C)O2)C13C(=O)O (some centres not stated)
3. CC(C)C1=CC2CC3(C=O)[C@@H]4CC[C@@H](C)[C@H]4CC2(CO[C@H]2C[C@@H]4OC(C)(C)CO[C@@H]4[C@@H](C)O2)C13C(=O)O (some centres not stated)
4. CC1OC2[C@H](O)[C@H](OCC34C[C@@H]5[C@H](C)CC[C@H]5C5(C=O)CC3C=C(C(C)C)C45C(=O)O)O[C@H](C)[C@H]2O1 (single isomer, unassigned)
5. CC(C)C1=CC2CC3(C=O)[C@@H]4CC[C@@H](C)[C@H]4CC2(CO[C@@H]2O[C@H](C)[C@H]4OC(C)(C)OC4[C@@H]2O)C13C(=O)O (single isomer, unassigned)

## Output
1. -0.60
2. -1.52
3. -0.60
4. -0.30
5. -0.92

## Input // query log10 MIC value for entry CC(C)C1=CC2CC3(C=O)[C@@H]4CC[C@@H](C)[C@H]4CC2(CO[C@@H]2C[C@@H]4OC(C)(C)O[C@@H]4[C@@H](C)O2)C13C(=O)O (some centres not stated)
## Output 0.60
